Listed here: items and their measured loss of binding vs wild type.
# System name: T1, miR2-FL-WT-T7 (mouse, UniProt Q80WQ6 1-827)
# T1 construct: on MEF-DKO cells
# T1 sequence: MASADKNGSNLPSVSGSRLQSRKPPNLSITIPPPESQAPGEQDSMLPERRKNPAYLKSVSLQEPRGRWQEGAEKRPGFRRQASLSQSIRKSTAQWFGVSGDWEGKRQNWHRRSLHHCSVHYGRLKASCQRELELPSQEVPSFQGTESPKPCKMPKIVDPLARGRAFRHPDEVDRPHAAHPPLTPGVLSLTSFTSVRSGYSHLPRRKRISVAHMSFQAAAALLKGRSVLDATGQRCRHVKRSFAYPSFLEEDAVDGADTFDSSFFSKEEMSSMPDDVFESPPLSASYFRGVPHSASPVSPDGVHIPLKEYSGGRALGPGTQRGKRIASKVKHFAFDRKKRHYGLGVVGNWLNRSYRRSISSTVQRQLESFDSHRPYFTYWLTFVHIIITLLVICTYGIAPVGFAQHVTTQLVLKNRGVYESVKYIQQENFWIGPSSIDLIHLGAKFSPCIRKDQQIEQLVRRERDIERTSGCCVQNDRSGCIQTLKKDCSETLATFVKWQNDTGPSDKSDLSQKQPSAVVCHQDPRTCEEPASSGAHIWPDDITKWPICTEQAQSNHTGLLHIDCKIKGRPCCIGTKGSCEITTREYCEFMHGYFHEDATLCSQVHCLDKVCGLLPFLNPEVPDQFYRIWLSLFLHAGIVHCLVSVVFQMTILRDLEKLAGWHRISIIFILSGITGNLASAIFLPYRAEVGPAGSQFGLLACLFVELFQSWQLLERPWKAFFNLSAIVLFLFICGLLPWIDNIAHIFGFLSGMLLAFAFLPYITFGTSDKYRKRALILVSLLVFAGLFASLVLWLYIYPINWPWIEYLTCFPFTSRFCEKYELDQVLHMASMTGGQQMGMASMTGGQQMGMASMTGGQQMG
# Measurement protocol: FACS, MEF-DKO cells, 3 µg/ml

Please review the following examples before continuing.
Binder	loss of binding vs wild type
antibody 50 (antibody, V domains shown, mouse IgG, kappa light chain; also called clone #50; purified antibody 50) VH: QVQLQQSGAELVRPGASVKVSCKASGYAFSNYLIEWVKQRPGQGLEWIGVINPGSGFTKYNEKFKGKATLTADKSSSTAYMQLSSLTSEDSAVYFCARGLYRAMDYWGQGTSVTVSS VL: DIQMTQSPASQSASLGESVTITCLASQTIGTWLAWYQQKPGKSPQLLIYAAASLADGVPSRFSGGGSGTKFSFKISSLQAEDFVNYYCQQIYSTPYTFGGGTKLEIK	≥ 95%
antibody 48 (antibody, V domains shown, mouse IgG, kappa light chain; also called clone #48; purified antibody 48) VH: QVQLQQSGTELVRPGTSVKVSCKASGYAFTNYLIEWVKQRPGQGLEWIGVINPGSGFTKYNEKFKGKATLTADKSSSTVYMHLSSLTSEDSAVYFCARGLYRAMDYWGQGTSVTVSS VL: DIQMTQSPASQSASLGESVTITCLASQTIATWLAWYQQKPGKSPQLLIYGATTLADGVPSRFSGGGSGTKFSFKISSLQAEDFVSYYCQQLYSTPYTFGGGTKLEIK	≥ 60%

Now look at this one.
Give the measured loss of binding vs wild type for antibody 44 (antibody, V domains shown, mouse IgG, kappa light chain; also called clone #44; purified antibody 44) VH: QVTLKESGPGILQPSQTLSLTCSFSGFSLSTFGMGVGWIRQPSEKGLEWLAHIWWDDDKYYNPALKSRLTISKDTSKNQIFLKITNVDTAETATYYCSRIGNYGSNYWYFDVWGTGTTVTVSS VL: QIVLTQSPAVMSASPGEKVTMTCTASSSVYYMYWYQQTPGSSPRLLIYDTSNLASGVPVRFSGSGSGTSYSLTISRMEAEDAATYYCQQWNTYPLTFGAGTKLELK ≥ 95%
